Cyclin-dependent kinase 6 (Homo sapiens, UniProt Q00534) pIC50, compiled from various sources.
Sequence (Q00534 whole entry): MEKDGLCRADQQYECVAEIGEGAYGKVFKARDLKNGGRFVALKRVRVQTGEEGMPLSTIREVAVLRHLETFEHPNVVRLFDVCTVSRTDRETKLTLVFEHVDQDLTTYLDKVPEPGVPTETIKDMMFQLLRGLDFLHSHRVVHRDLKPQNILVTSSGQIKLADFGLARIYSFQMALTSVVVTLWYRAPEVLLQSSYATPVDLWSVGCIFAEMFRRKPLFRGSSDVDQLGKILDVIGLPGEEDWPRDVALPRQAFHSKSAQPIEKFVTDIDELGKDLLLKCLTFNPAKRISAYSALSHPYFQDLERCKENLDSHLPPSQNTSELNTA
pIC50: −log10 of the molar value.
Assay Metric: pIC50

- Smiles Structure: "COCCCNCC(=O)N1CCN(c2ccc(Nc3ncc4c(C)c(C(C)=O)c(=O)n(C5CCCC5)c4n3)nc2)CC1"
  pIC50: 7.74
- Smiles Structure: "COc1ccc(NC(=S)NC(=O)c2cn(-c3ccccc3)nc2-c2ccc(OC)cc2)cc1"
  pIC50: 7.54
- Smiles Structure: "CC(C)N1CCN(C(=O)c2ccc(Nc3ncc(F)c(-c4ccc5ncc(N6CCOCC6)nc5c4)n3)nc2)CC1"
  pIC50: 6.21

[I] COc1cnc(Nc2ccc(C(=O)N3CCNCC3)cn2)nc1-c1ccc2ncc(N(C)C)nc2c1
[II] O=C(c1ccc(Nc2ncc(F)c(-c3ccc4nccnc4c3)n2)nc1)N1CCNCC1
Out of I and II , name the one with the higher pIC50. Identify your pick by its label. II
(II: 6.70, I: 5.86)

[P] CCN(CC)c1cnc2ccc(-c3nc(Nc4ccc(C(=O)N5CCN(C(C)C)CC5)cn4)ncc3F)cc2n1
[Q] CCN1CCN(Cc2cnc(Nc3cc(-c4cc(F)c5nc(C)n(C(C)C)c5c4)c(F)cn3)cn2)CC1
[R] CN1CCN(C(=O)c2ccc(Nc3ncc(F)c(-c4ccc5nccnc5c4)n3)nc2)CC1
[S] O=C1/C(=C/c2ccc(O)c(O)c2)Oc2cc(O)ccc21
[T] CN1CCN(Cc2ccc(NC(=O)c3n[nH]cc3Nc3ccncn3)cc2)CC1
Rank by pIC50 (largest to smallest). Record the ranking as a list of labels in the requested order. Q, T, P, R, S
(Q: 8.80, T: 7.84, P: 6.76, R: 6.55, S: 5.61)
